target: JAK3 (recombinant human kinase domain; h-jak3(810-1124)) (Homo sapiens, UniProt P52333); construct: h-jak3(810- 1124)-sf9-c; made in house; host or cells: Sf9 insect cells; assay: Determination of IC50 of Janus Kinase (JAK) inhibition: JAK3, radioactive end-point assay with 33P-ATP; type: biochemical
Sequence (P52333 810-1124): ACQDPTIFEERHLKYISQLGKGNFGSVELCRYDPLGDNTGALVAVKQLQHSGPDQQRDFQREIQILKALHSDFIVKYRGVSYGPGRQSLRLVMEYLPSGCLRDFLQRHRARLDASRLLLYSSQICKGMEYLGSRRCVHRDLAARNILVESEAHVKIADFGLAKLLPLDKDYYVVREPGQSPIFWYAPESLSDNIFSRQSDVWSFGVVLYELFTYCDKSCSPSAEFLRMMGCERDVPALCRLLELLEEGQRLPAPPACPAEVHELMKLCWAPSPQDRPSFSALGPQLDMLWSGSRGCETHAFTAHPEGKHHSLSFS
Measured metric: IC50 (nM)
// note: answer is a bare numeric in nM

-- ask Recorded IC50 for "CC(C)NC(=O)c1c[nH]c2ncc(Oc3ccc4c(c3)C=CC4)nc12" , please?
-- reply 157

---

target: JAK3 (recombinant human kinase domain; h-jak3(810-1124)) (Homo sapiens, UniProt P52333); construct: h-jak3(810- 1124)-sf9-c; made in house; host or cells: Sf9 insect cells; assay: Determination of IC50 of Janus Kinase (JAK) inhibition: JAK3, radioactive end-point assay with 33P-ATP; assay type: biochemical; conditions: JAK3 kinase domain; ATP 1.5 uM, peptide 50 uM, 20 minutes, room temperature, 10% DMSO; read-out: Ic50 h-jak3(810-1124)-sf9-c:no additive
Measured metric: pIC50
// pIC50 here means minus log10 of the molar concentration (mol/L)

C[C@H](NC(=O)c1c[nH]c2ncc(-c3ccc(C(=O)NC45CC6CC(CC(C6)C4)C5)s3)nc12)C(C)(C)C    8.87
CC(C)(CO)CNC(=O)c1c[nH]c2ncc(Br)nc12    6.65
C[C@H](NC(=O)c1c[nH]c2ncc(-c3ccc(C(=O)N4CCN(C)CC4)s3)nc12)C(C)(C)C    9.49
CC(C)NC(=O)c1c[nH]c2ncc(Oc3ccc4c(c3)C(O)CC4)nc12 (stereo not drawn)    6.79
CC(C)NC(=O)c1c[nH]c2ncc(Oc3ccc(F)cc3F)nc12    6.38

-- ask Recorded pIC50 for "Cc1ccc(F)c(-n2cnc(-c3cnc4[nH]cc(C(=O)N[C@@H](C)C(C)(C)C)c4n3)c2)c1" , please?
-- reply 8.49

-- ask Recorded pIC50 for "CCNC(=O)c1c[nH]c2ncc(Oc3ccc4c(c3)[C@H](NC(C)=O)CC4)nc12" , please?
-- reply 5.90

-- ask Recorded pIC50 for "CCNC(=O)c1c[nH]c2ncc(Oc3ccc4c(c3)CCCC4)nc12" , please?
-- reply 5.82

-- ask Recorded pIC50 for "CC[C@H](NC(=O)c1c[nH]c2ncc(C3CC3)nc12)C(C)(C)O" , please?
-- reply 7.27

-- ask Recorded pIC50 for CC(C)(O)C(CCO)NC(=O)c1c[nH]c2ncc(C3CC3)nc12 (stereo not drawn) , please?
-- reply 7.07

-- ask Recorded pIC50 for "CC(C)NC(=O)c1c[nH]c2ncc(Oc3ccc4c(c3)[C@H](NC(=O)C3CCOCC3)CC4)nc12" , please?
-- reply 7.25

-- ask Recorded pIC50 for "CC(C)NC(=O)c1c[nH]c2ncc(Oc3cccc4c3CCCC4)nc12" , please?
-- reply 5.28

-- ask Recorded pIC50 for "C[C@@H](NC(=O)c1c[nH]c2ncc(Oc3ccccc3)nc12)C(C)(C)O" , please?
-- reply 6.17

-- ask Recorded pIC50 for "CC(C)(C)CNC(=O)c1c[nH]c2ncc(C3CC3)nc12" , please?
-- reply 7.53

-- ask Recorded pIC50 for "CCNC(=O)c1c[nH]c2ncc(Oc3cccc(C(F)(F)F)c3)nc12" , please?
-- reply 5.39

-- ask Recorded pIC50 for "CCNC(=O)c1c[nH]c2ncc(Oc3cccc4[nH]ccc34)nc12" , please?
-- reply 6.20

-- ask Recorded pIC50 for CC(Cc1ccc(F)cc1)NC(=O)c1ccc(-c2cnc3[nH]cc(C(=O)N[C@@H](C)C(C)(C)C)c3n2)s1 (stereo partly drawn) , please?
-- reply 9.28

-- ask Recorded pIC50 for CC(C)(C(=O)O)C(NC(=O)c1c[nH]c2ncc(C3CC3)nc12)C1CC1 (stereo not drawn) , please?
-- reply 7.02

-- ask Recorded pIC50 for "CNC(=O)N[C@@H]1CCc2ccc(Oc3cnc4[nH]cc(C(=O)NC(C)C)c4n3)cc21" , please?
-- reply 7.04

-- ask Recorded pIC50 for "CC[C@](C)(O)[C@H](C)NC(=O)c1c[nH]c2ncc(C3CC3)nc12" , please?
-- reply 7.40

-- ask Recorded pIC50 for "CC(C)(CO)CNC(=O)c1c[nH]c2ncc(N3CCC(C)(C)C3)nc12" , please?
-- reply 6.39

-- ask Recorded pIC50 for "CCNC(=O)c1ccc(-c2cnc3[nH]cc(C(=O)N[C@@H](C)C(C)(C)C)c3n2)s1" , please?
-- reply 9.49

-- ask Recorded pIC50 for "C[C@H](NC(=O)c1c[nH]c2ncc(C3CCCCC3)nc12)C(C)(C)O" , please?
-- reply 6.82

-- ask Recorded pIC50 for "C[C@H](NC(=O)c1c[nH]c2ncc(C3CC3)nc12)C1(O)CCCC1" , please?
-- reply 7.74

-- ask Recorded pIC50 for "COc1ccccc1Oc1cnc2[nH]cc(C(=O)NC(C)C)c2n1" , please?
-- reply 6.03

-- ask Recorded pIC50 for "CC(C)NC(=O)c1c[nH]c2ncc(Oc3ccc4c(c3)C(=O)CC4)nc12" , please?
-- reply 6.24

-- ask Recorded pIC50 for "C[C@H](NC(=O)c1c[nH]c2ncc(-c3ccc(C(=O)NCCC(F)(F)F)s3)nc12)C(C)(C)C" , please?
-- reply 9.74
